These data points were gathered from ChEMBL document CHEMBL4513216.

System: Plasmodium falciparum
Test: Screen against P. falciparum Asexual Blood Stage (ABS), at 5uM
Assay type: functional, Dd2
Settings: tested at 5 uM
The whole screen tested about 65,000 compounds, of which about 2,100 (3.2%) showed an effect of 50% or more. The median lay at about -52%. Only a selection was taken, and strong results are over-represented in it overall.
// reported INHIBITION for each item listed
Respond with the bare value in %.

Examples from the recorded data:
| molecule | quantity-unit | INHIBITION |
| --- | --- | --- |
| Cc1cc(N2CCCC(O)(CN(C)C)CC2)nc(-c2ccccc2)n1 (stereo not given) | % | 57.4 |
| Cn1cc(S(=O)(=O)NCCc2ccsc2)cn1 | % | -97 |
| Clc1ccc2cccnc2c1CN1CCCC1Cn1cncn1 (stereo not given) | % | 53.7 |

Data point: CCC(NC(=O)c1ccco1)c1ccccc1OCC(=O)N1CCCC1 (stereo not given) ; INHIBITION = -51.4

Data point: CC(Nc1ncnc2c1CCNCC2)c1nc2c(s1)CCCC2 (stereo not given) ; INHIBITION = 9.93

Data point: `Nc1nnnn1NCc1cccc(Cl)c1Cl` ; INHIBITION = -65.4

---

// reported INHIBITION for each item listed
Test system: Plasmodium falciparum
Assay: Screen against P. falciparum Asexual Blood Stage (ABS), at 5uM
Type: functional, Dd2
Conditions: tested at 5 uM
The campaign covered roughly 65,000 compounds. About 2,100 (3.2%) showed an effect of 50% or more. The median lay at about -52%. This is one part of a sample in which strong results are shown more often than they occur.
Respond with the bare value in %.

| molecule | INHIBITION (%) |
| --- | --- |
| Cc1c(C(=O)NCCC(=O)N2CCCC2)cccc1-c1ccccn1 | -47.4 |
| c1ccc(Oc2ccc(CNCC3CNc4ccnn4C3)cn2)cc1 (stereo not drawn) | -12.8 |
| Cc1cnn(CCNCC(O)COc2ccc(Cl)cc2Cl)c1 (stereo not drawn) | 20.2 |
| Cc1cc(O)ncc1NS(=O)(=O)c1cccc(F)c1F | -123 |
| COC(=O)[C@@H]1CCCN1C(=O)c1cn(C/C=C/c2ccccc2)nn1 | -29.2 |
| CN(C)C1(CNC(=O)Cc2ccc(F)cc2)CCOCC1 | 0.427 |
| COc1cc(CNc2cc(-c3nncn3C)ccn2)cc(OC)c1OC | -52.4 |
| Cc1ccc(C)c(OCc2nnc(SCC3CCCN(C)C3)o2)c1 (stereo not drawn) | 60.3 |
| Cc1cc2[nH]c(CN3CCCCC3c3cccc(F)c3)cc(=O)n2n1 (stereo not drawn) | -64.9 |
| Clc1ccc(CN(CCN2CCOCC2)Cc2cccnc2)c(Cl)c1 | 35.4 |

Data point: `CC(C)c1nnc2n1CCN(Cc1ccc3c(c1)OCCO3)C2` ; INHIBITION = -93.4

Data point: Cc1nc(C)n(CC2CCCN2CC(=O)Nc2ccncc2)n1 (stereo not drawn) ; INHIBITION = -153

Data point: O=C(CC1CC1)N1CCC2(CCCN(CCOc3ccccc3)C2)C1 (stereo not drawn) ; INHIBITION = 57.8

Data point: `COc1ccc(NC(=O)Cn2nc(C)c(C)cc2=O)cc1` ; INHIBITION = 25.5

Data point: Cc1cc(NC(=O)CN2CCCC(Cn3nc(C)nc3C)C2)n(C)n1 (stereo not drawn) ; INHIBITION = 54.5

Data point: `CC1(C(=O)NCCc2ccc(F)cc2)CCOCC1` ; INHIBITION = -16.2

Data point: Cc1cc(NC(=O)CN2CCCC2Cn2nc(C)nc2C)n(C)n1 (stereo not drawn) ; INHIBITION = -142

Data point: `CCn1c(=NC(=O)CSCC(=O)Nc2nccs2)sc2ccccc21` ; INHIBITION = 32.3

Data point: COC(=O)CN1CCN(c2nc3c(s2)c(C)nn3C)C(C)C1=O (stereo not drawn) ; INHIBITION = -88
